Each item that follows carries a reported pKi.
Assay: Inhibitory activity against endothelial nitric oxide synthase (eNOS)
pKi: −log10 of the molar value. Peptide text beside a SMILES is read from it.
reported-metric: pKi

molecule: NCCCC[C@H](N)C(=O)N[C@H](CCC/N=C(\N)N[N+](=O)[O-])C(N)=O (HELM PEPTIDE1{K.[N=C(NCCC[C@@H](N[*:1])C(=O)[*:2])N[N+](=O)[O-]].[am]}$$$$V2.0)
measured-result: 3.64
//
molecule: NCCCC[C@@H](N)C(=O)N[C@H](CCC/N=C(/N)N[N+](=O)[O-])C(N)=O (HELM PEPTIDE1{[dK].[N=C(NCCC[C@@H](N[*:1])C(=O)[*:2])N[N+](=O)[O-]].[am]}$$$$V2.0)
measured-result: 4.52
//
molecule: COC(=O)[C@@H](CCCNC(=N)N[N+](=O)[O-])NC(=O)[C@H](N)Cc1ccccc1 (HELM PEPTIDE1{[dF].[N=C(NCCC[C@@H](N[*:1])C(=O)[*:2])N[N+](=O)[O-]].[CO[*:1]]}$$$$V2.0)
measured-result: 5.30
